MEASUREMENT_TARGET: EGFR L858R/T790M/C797S mutant (Homo sapiens (Human), UniProt P00533, C797S/L858R/T790M)
Sequence (P00533 25-1210 T790M/C797S/L858R): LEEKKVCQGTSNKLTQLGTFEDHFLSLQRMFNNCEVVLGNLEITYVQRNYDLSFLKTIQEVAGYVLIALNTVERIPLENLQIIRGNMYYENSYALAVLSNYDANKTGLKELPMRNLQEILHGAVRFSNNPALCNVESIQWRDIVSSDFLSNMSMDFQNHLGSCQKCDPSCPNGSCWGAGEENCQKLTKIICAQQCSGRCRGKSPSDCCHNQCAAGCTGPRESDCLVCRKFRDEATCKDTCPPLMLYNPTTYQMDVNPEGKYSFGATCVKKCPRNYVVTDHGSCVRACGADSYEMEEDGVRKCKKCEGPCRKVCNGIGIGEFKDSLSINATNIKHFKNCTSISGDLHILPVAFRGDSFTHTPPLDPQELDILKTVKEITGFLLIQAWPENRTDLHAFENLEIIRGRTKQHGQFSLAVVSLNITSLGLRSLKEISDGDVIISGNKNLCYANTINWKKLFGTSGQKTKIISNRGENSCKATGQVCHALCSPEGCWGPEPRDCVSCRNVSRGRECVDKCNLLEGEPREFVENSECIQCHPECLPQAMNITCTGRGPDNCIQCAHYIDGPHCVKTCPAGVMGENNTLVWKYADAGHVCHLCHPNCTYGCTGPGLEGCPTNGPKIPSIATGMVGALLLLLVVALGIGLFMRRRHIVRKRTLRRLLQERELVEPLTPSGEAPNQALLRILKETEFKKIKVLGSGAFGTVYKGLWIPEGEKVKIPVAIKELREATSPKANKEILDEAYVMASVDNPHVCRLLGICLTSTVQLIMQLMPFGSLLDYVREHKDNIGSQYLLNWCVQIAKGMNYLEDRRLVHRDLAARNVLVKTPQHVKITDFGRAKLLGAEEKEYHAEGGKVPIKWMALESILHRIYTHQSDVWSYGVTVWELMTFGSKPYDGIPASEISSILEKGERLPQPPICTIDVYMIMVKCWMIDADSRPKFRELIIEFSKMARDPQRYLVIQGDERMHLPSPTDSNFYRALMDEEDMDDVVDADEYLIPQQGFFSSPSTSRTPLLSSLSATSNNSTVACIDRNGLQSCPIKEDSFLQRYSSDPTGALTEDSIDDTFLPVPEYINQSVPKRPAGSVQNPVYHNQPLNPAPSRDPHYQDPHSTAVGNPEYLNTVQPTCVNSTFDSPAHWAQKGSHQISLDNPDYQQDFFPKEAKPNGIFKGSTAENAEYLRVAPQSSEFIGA
ASSAY_NOTES: HotSpot radiometric kinase assay, EGFR L858R/T790M/C797S mutant
SETTINGS: 10 μM ATP
RECORDED_METRIC: IC50 (nM)

Worked cases, IC50 given:
COMPOUND	UOM	IC50
CCOc1nn(CCO)c2c1/C=C/c1n[nH]c3ccc(cc13)-c1cnn(C)c1O[C@H](C)CN(C(C)=O)C2	nM	1.42
CC(C)Oc1nn(CCO)c2c1/C=C/c1n[nH]c3ccc(cc13)-c1cnn(C)c1OC[C@H](C)N(C1CC1)C2	nM	0.2
Cc1nn(CCO)c2c1/C=C/c1n[nH]c3cc(Cl)c(cc13)-c1cnn(C)c1O[C@@H](C)CN(C)C2	nM	7.49

1 = CCOc1nn(C)c2c1/C=C/c1n[nH]c3ccc(cc13)-c1cnn(C)c1O[C@@H]1CCCN(C2)C1
2 = C[C@H]1CN(C)Cc2c(c(OC3CN(S(C)(=O)=O)C3)nn2CCO)/C=C/c2n[nH]c3ccc(cc23)-c2cnn(C)c2O1
Would you kindly point out which of 1 and 2 has the smaller IC50 figure? In your reply, give the label of the chosen option.
2

a = CC(C)Oc1nn(CCO)c2c1/C=C/c1n[nH]c3ccc(cc13)-c1cnn(C)c1O[C@@H](C)C(=O)N(C)C2
b = Cc1nn([C@H]2COC[C@@H]2O)c2c1/C=C/c1n[nH]c3ccc(cc13)-c1cnn(C)c1OCCCO2 (single isomer, unassigned)
Select the item whose IC50 value is smaller, choosing between a and b . Mark your answer with the label of the selected entry.
a
(a: 27.5 nM, b: 63.4 nM)

P = C[C@H]1CN(C)Cc2nn3c(c2/C=C/c2n[nH]c4ccc(cc24)-c2cnn(C)c2O1)CN(CCS(C)(=O)=O)CC3
Q = Cc1nn(C)c2c1/C=C/c1n[nH]c3ccc(cc13)-c1cnn(C)c1OCCN(C)C(=O)CO2
Among P and Q , whose measured IC50 is the smaller figure? # respond with the chosen item's label
P
(P: 0.55 nM, Q: 33.5 nM)
